Experiment: Pharmacokinetic measurements in rats (intravenous and intra-tracheal dosing)
Format: in vivo
Conditions: rat, i.t. dosing, 1.5 h
observed property: BAL % administered dose at time (h) (%)
Express your answer in %, writing the number without its unit.

[[record]]
molecule = "COC(=O)c1ccc2c(c1)NC(=O)/C2=C(\\Nc1ccc(S(=O)(=O)NOCCN(C)C)cc1)c1ccccc1 [Example 15]"
measurement = 0.6


Q: GET /values?readout=BAL % administered dose at time (h)&item= COC(=O)c1ccc2c(c1)NC(=O)/C2=C(\Nc1ccc(N(C)C(=O)CN2CCN(C)CC2)cc1)c1ccccc1 [Nintedanib, reference compound]
Result: 1

Q: # BAL % administered dose at time (h) lookup, item COC(=O)c1ccc2c(c1)NC(=O)/C2=C(\Nc1ccc(C(=O)NOCCN(C)C)cc1)c1ccccc1 [Example 3]
Result: 0.3

Q: Need BAL % administered dose at time (h) of COC(=O)c1cc2c(cc1C)/C(=C(/Nc1ccc(C(=O)NOCCN3CCN(C)CC3)cc1)c1ccccc1)C(=O)N2 [Example 6] , thanks.
Result: 3

###

Test: Pharmacokinetic measurements in rats (intravenous and intra-tracheal dosing)
Format: in vivo
Settings: rat, i.v. dosing, 1.5 h
observed property: BAL % administered dose at time (h) (%)
API: value field is a number in %; no unit string.

[[record]]
molecule = "COC(=O)c1cc2c(cc1C)/C(=C(/Nc1ccc(C(=O)NOCCN3CCN(C)CC3)cc1)c1ccccc1)C(=O)N2 [Example 6]"
value_units = "%"
measurement = 0.03

[[record]]
molecule = "COC(=O)c1cc2c(cc1C)/C(=C(/Nc1ccc(C(=O)NOCCN(C)C)c(C)c1)c1ccccc1)C(=O)N2 [Example 5]"
value_units = "%"
measurement = 0.01


Now for another entry.
Q: I am curious: what BAL % administered dose at time (h) value has been reported for COC(=O)c1ccc2c(c1)NC(=O)/C2=C(\Nc1ccc(C(=O)NOCCN(C)C)cc1)c1ccccc1 [Example 3] ?
Result: 0.02

###

Assay: Pharmacokinetic measurements in rats (intravenous and intra-tracheal dosing)
Format: in vivo
Conditions: male, CD, lung, iv; rat, i.v. dosing, 0.1 h; read-out: lung concentration (nM) at time (h)
Below, each entry is listed alongside its reported concentration at 0.1 h.
Report the value in nM with no unit label.

Consider the reported concentration at 0.1 h for these compounds:
[[record]]
smiles_text = "COC(=O)c1ccc2c(c1)NC(=O)/C2=C(\\Nc1ccc(S(=O)(=O)NOCCN(C)C)cc1)c1ccccc1"
observed_property = "concentration at 0.1 h"
value_units = "nM"
measurement = 501

[[record]]
smiles_text = "COC(=O)c1cc2c(cc1C)/C(=C(/Nc1ccc(C(=O)NOCCN(C)C)c(C)c1)c1ccccc1)C(=O)N2"
observed_property = "concentration at 0.1 h"
value_units = "nM"
measurement = 475

[[record]]
smiles_text = "COC(=O)c1ccc2c(c1)NC(=O)/C2=C(\\Nc1ccc(C(=O)NOCCN(C)C)cc1)c1ccccc1"
observed_property = "concentration at 0.1 h"
value_units = "nM"
measurement = 719

[[record]]
smiles_text = "COC(=O)c1cc2c(cc1C)/C(=C(/Nc1ccc(C(=O)NOCCN3CCN(CCO)CC3)cc1)c1ccccc1)C(=O)N2"
observed_property = "concentration at 0.1 h"
value_units = "nM"
measurement = 329

[[record]]
smiles_text = "COC(=O)c1cc2c(cc1C)/C(=C(/Nc1ccc(C(=O)NOCCN3CCN(C)CC3)cc1)c1ccccc1)C(=O)N2"
observed_property = "concentration at 0.1 h"
value_units = "nM"
measurement = 2990


Moving on to the next compound.
Q: I'd like to know its concentration at 0.1 h. The compound in question is COC(=O)c1ccc2c(c1)NC(=O)/C2=C(\Nc1ccc(C(=O)NOCCN2CCN(C)CC2)cc1)c1ccccc1
Result: 419
